- subject of test: PE-labeled human PD-L1-Ig binding to Jurkat cell line over-expressing human PD-1 (Jurkat-PD-1) (Homo sapiens)
- Construct: expressed in transfected cells; host or cells: Jurkat
- Sequence (Q15116 25-288): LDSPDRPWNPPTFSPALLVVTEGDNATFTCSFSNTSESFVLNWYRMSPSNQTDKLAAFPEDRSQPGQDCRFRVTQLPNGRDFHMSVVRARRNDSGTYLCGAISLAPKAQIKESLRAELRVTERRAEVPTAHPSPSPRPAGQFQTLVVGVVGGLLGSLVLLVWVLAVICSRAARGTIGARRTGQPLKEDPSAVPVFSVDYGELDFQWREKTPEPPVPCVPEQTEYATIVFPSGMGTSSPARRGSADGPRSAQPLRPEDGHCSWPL
- procedure details: Jurkat-PD-1 Cell Binding High-Content Screening Assay (CBA): Method 1
- stated conditions: Jurkat-hPD-1 cells, PE-labeled PD-L1-Ig 20 nM final; read-out: Jurkat HPDL1 PD1 IC50 (uM) (Method 1)
Bridge positions count the residues as written; N and C are the ends. Square brackets hold non-standard residues; d marks the D form. Peptide text beside a SMILES is read from it. Bip = N[C@@H](Cc1ccc(-c2ccccc2)cc1)C(=O)O; NMeA = CN[C@@H](C)C(=O)O
outcome measure: IC50 (µM)

INSERT INTO results (molecule, unit_of_measurement, recorded_result) VALUES
  ('CC(C)C[C@@H]1NC(=O)[C@H](CC(N)=O)NC(=O)[C@@H](CC(C)C)NC(=O)[C@H](C)N(C)C(=O)[C@H](CCCNC(=N)N)NC(=O)[C@H](Cc2ccc(-c3ccccc3)cc2)NC(=O)[C@H](C(C)C)NC(=O)[C@H](Cc2c[nH]c3ccccc23)NC(=O)[C@H](CC(=O)O)NC(=O)[C@H](Cc2ccc(O)cc2)NC(=O)[C@H](CC(N)=O)NC(=O)CSC[C@@H](C(=O)N[C@@H](C)C(N)=O)NC(=O)[C@H]([C@@H](C)O)NC(=O)[C@H](C(C)C)NC1=O [Compound 1245] ({CH2CO}-NYDWV[Bip]R[NMeA][dL]NLVTCA-NH2; thioether N-14)', 'µM', 0.1);
